Assay: Pharmacokinetics of vonoprazan and MI in rats with or without inhibitor pretreatment
Format: in vivo, Sprague-Dawley rats
Details: male, Sprague-Dawley, rat, plasma, po, 2 mg/kg, Amlodipine group (10 mg/kg amlodipine 7 days), single gavage 2 mg/kg vonoprazan, rat plasma; read-out: t1/2z (converted)
OBSERVABLE: half-life (h)

{"CHEMICAL STRUCTURE": "O=C(O)c1cc(-c2ccccc2F)n(S(=O)(=O)c2cccnc2)c1", "OBSERVABLE": "half-life", "MEASUREMENT": 1.91}
{"CHEMICAL STRUCTURE": "CNCc1cc(-c2ccccc2F)n(S(=O)(=O)c2cccnc2)c1", "OBSERVABLE": "half-life", "MEASUREMENT": 1.73}
